# Tested on: K562 (human leukemia cells)
# ASSAY_PROTOCOL: MTT cancer cell growth inhibition
# Assay type: cell-based
# TEST_CONTEXT: Homo sapiens, K562, 72 h, MTT, 72 hours incubation, K562 cells; read-out: GI50 K562
ENDPOINT_LABEL: GI50
A bare number is not enough; add the unit after it.

Req: Fill in GI50 for record C/C=C1\NC(=O)c2cc(F)cc(n2)CNC(=O)C[C@@H](/C=C/CCSC(C)=O)OC(=O)[C@H](CCCCNC(=O)OCC2c3ccccc3-c3ccccc32)NC1=O
Resp: 0.017 µM

Req: Assign GI50 to the following record: C=C1NC(=O)c2nc(ccc2F)CNC(=O)C[C@@H](/C=C/CCSC(C)=O)OC(=O)[C@H](C(C)C)NC1=O
Resp: 0.035 µM

Req: For the molecule C/C=C1\NC(=O)c2cccc(n2)CNC(=O)C[C@@H](/C=C/CCSC(=O)CCCCCCC)OC(=O)[C@H](C)NC1=O , give its measured GI50 value.
Resp: 0.063 µM

Req: Please list GI50 recorded for the molecule C/C=C1\NC(=O)c2ccc(SC)c(n2)CNC(=O)C[C@@H](/C=C/CCSC(C)=O)OC(=O)[C@H](Cc2ccccc2)NC1=O
Resp: 0.036 µM

Req: Please list GI50 recorded for the molecule C/C=C1\NC(=O)c2ccc(SC)c(n2)CNC(=O)C[C@@H](/C=C/CCSC(=O)CCCCCCC)OC(=O)[C@H](C)NC1=O
Resp: 0.083 µM

Req: Give the reported value of GI50 for this record: C/C=C1\NC(=O)c2cc(F)cc(n2)CNC(=O)C[C@@H](/C=C/CCSC(=O)CCCCCCC)OC(=O)[C@H](Cc2ccccc2)NC1=O
Resp: 0.052 µM

---

Record form. Attribute: IC50. Fill in for each entry.
# SYSTEM_NAME: HDAC1 (Homo sapiens)
# Sequence (Q13547 whole entry, species assumed): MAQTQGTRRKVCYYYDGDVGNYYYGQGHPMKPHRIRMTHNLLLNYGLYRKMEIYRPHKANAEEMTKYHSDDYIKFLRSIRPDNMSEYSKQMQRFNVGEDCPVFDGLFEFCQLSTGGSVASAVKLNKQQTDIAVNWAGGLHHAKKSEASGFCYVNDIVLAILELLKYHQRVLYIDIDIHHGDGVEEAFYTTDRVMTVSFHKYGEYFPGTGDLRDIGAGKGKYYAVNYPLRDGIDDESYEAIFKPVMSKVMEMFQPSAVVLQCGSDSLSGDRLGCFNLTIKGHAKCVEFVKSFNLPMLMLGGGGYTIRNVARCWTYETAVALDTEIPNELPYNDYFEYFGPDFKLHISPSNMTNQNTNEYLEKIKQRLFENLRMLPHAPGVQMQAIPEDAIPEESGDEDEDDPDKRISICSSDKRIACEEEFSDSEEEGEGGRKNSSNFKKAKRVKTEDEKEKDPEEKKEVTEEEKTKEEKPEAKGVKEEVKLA
# ASSAY_PROTOCOL: HDAC biochemical activity measurement (fluorescent substrate deacetylation);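 also: fluorogenic acetyl-lysine substrate (20 µM) deacetylated by HDAC1, then developer releases fluorophore read at 360 nm excitation and 460 nm emission, inhibitor incubated 30 min at 37 °C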
# TEST_CONTEXT: Table 2; read-out: IC50 HDAC1, a (compounds of the present invention)

Req: Identify IC50 associated with the compound C/C=C1\NC(=O)c2cccc(n2)CNC(=O)C[C@@H](/C=C/CCSC(=O)CCCCCCC)OC(=O)[C@@H](C)NC1=O
Resp: < 50 nM

Req: Tell me its IC50 given C/C=C1\NC(=O)c2nc(ccc2C)CNC(=O)C[C@@H](/C=C/CCSC(=O)CCCCCCC)OC(=O)[C@H](C(C)C)NC1=O as the entry.
Resp: < 100 nM

Req: Quick one: give measured IC50 for C/C=C1\NC(=O)c2cccc(n2)CNC(=O)C[C@@H](/C=C/CCSC(=O)CCCCCCC)OC(=O)CNC1=O
Resp: < 10 nM

Req: Return reported IC50. Input compound: CCCCCCCC(=O)SCC/C=C/[C@@H]1CC(=O)NCc2cccc(n2)C(=O)NCC(=O)N[C@@H](C(C)C)C(=O)O1
Resp: < 100 nM

Req: Identify measured IC50 corresponding to C/C=C1\NC(=O)c2cccc(n2)CNC(=O)C[C@@H](/C=C/CCSC(=O)CCCCCCC)OC(=O)[C@H](Cc2ccccc2)NC1=O
Resp: < 100 nM

Req: Supply IC50 value. Item: C/C=C1\NC(=O)c2cccc(n2)CNC(=O)C[C@@H](/C=C/CCSC(=O)CCCCCCC)OC(=O)[C@H](C(C)(C)C)NC1=O
Resp: < 80 nM

Req: # return recorded IC50 for entry C/C=C1\NC(=O)c2cccc(n2)CNC(=O)C[C@@H](/C=C/CCSC(=O)CCCCCCC)OC(=O)[C@H](c2ccc(O)cc2)NC1=O
Resp: < 50 nM

Req: Give IC50 for C/C=C1\NC(=O)c2cccc(n2)CNC(=O)C[C@@H](/C=C/CCSC(=O)CCCCCCC)OC(=O)[C@H](C)NC1=O
Resp: < 30 nM

Req: Given C=C1NC(=O)c2cccc(n2)CNC(=O)C[C@@H](/C=C/CCSC(=O)CCCCCCC)OC(=O)[C@H](C(C)C)NC1=O , respond with its IC50.
Resp: < 100 nM

Req: Output IC50 of C/C=C1\NC(=O)c2cccc(n2)CNC(=O)C[C@@H](/C=C/CCSC(C)=O)OC(=O)[C@H](C(C)C)NC1=O
Resp: < 500 nM

Req: Answer with the recorded IC50 for the compound listed here: CCCCCCCC(=O)SCC/C=C/[C@@H]1CC(=O)NCc2cccc(n2)C(=O)NC(CC)C(=O)N[C@@H](C(C)C)C(=O)O1 (some centres unmarked)
Resp: < 100 nM

Req: Tell me its IC50 given C/C=C1\NC(=O)c2cccc(n2)CNC(=O)C[C@@H](/C=C/CCSC(=O)CCCCCCC)OC(=O)[C@H](CSCC)NC1=O as the entry.
Resp: < 20 nM

Req: Identify the reported IC50 for the following entry. C/C=C1\NC(=O)c2cccc(n2)CNC(=O)C[C@@H](/C=C/CCSC(=O)CCCCCCC)OC(=O)[C@H](Cc2cccc3ccccc23)NC1=O
Resp: < 100 nM

Req: For C/C=C1\NC(=O)c2cccc(n2)CNC(=O)C[C@@H](/C=C/CCSC(=O)CCCCCCC)OC(=O)[C@H](C(C)C)NC1=O , write its IC50.
Resp: < 50 nM

Req: Kindly indicate its recorded IC50. Item: C/C=C1\NC(=O)c2cccc(n2)CNC(=O)C[C@@H](/C=C/CCSC(=O)CCCCCCC)OC(=O)[C@H](CC)NC1=O
Resp: < 50 nM

Req: Dear colleague, please send me the reported IC50 for C/C=C1\NC(=O)c2cccc(n2)CNC(=O)C[C@@H](/C=C/CCSC(=O)CCCCCCC)OC(=O)[C@H](CCSC)NC1=O when you can.
Resp: < 50 nM

Req: Please report IC50 for the following compound: C/C=C1\NC(=O)c2cccc(n2)CNC(=O)C[C@@H](/C=C/CCSC(=O)CCCCCCC)OC(=O)[C@H](CC(C)C)NC1=O
Resp: < 30 nM
